Population Tubulin-Different-Phenotype (%) overview
Tested on: Fibroblast
measurement_protocol: Multiplex assay against human fibroblast
Type: toxicity, cell-based
condition_details: 48 h, 1 µM, compound concentration 1 uM, replicate 1
Just the number please, in %, no unit attached.

Read off the recorded Population Tubulin-Different-Phenotype (%) for CSc1ccccc1N1CCN(CCCCCC(=O)NC2CCCc3ccccc32)CC1.Cl (stereo not drawn)
69

Output Population Tubulin-Different-Phenotype (%) of "O=C(O)Cc1ccccc1Nc1c(Cl)cccc1Cl"
24

Please supply the value of reported Population Tubulin-Different-Phenotype (%) for the item "Cc1ccc(/C(=C\CN2CCCC2)c2ccccn2)cc1"
31

State its Population Tubulin-Different-Phenotype (%) for this compound: Cc1ccccc1C(=O)Nc1ccc(C(=O)N2CCCC(N(C)C)c3ccccc32)cc1.Cl (stereo not drawn)
28

Give Population Tubulin-Different-Phenotype (%) for the following compound: "CC[C@H]1OC(=O)[C@H](C)[C@@H](O[C@H]2C[C@@](C)(OC)[C@@H](O)[C@H](C)O2)[C@H](C)[C@@H](O[C@@H]2O[C@H](C)C[C@H](N(C)C)[C@H]2O)[C@@]2(C)CC(C)=C(O2)[C@H](C)[C@@H](O)[C@]1(C)O"
57

State its Population Tubulin-Different-Phenotype (%) for this compound: "O=C1COc2nccc(-c3ccccc3F)c2CN1Cc1cc(C(F)(F)F)cc(C(F)(F)F)c1"
28

For the compound "C[C@H]1[C@H]2CC[C@H]3[C@@H]4CC=C5C[C@@H](N(C)C)CC[C@]5(C)[C@H]4CC[C@]23CN1C" , give its reported Population Tubulin-Different-Phenotype (%).
27

Answer with reported Population Tubulin-Different-Phenotype (%) of "CCCn1c(=O)c2[nH]c(C3CCCC3)nc2n(CCC)c1=O"
35

* * *

Tested on: U2OS
measurement_protocol: Multiplex assay against U2OS
Assay type: toxicity, cell-based
condition_details: human, 48 h, 10 µM, compound concentration 10 uM, replicate 1
Property: Population Mitotic Cells (%); scope: individual compounds
A number alone suffices; assume %.

Answer with reported Population Mitotic Cells (%) of "CCCC(CCC)C(=O)O"
8

Please indicate Population Mitotic Cells (%) recorded for "O=C1COc2nccc(-c3ccccc3F)c2CN1Cc1cc(C(F)(F)F)cc(C(F)(F)F)c1"
38

Supply reported Population Mitotic Cells (%) belonging to this compound: "CCOc1c2c(c(OCC)c3ncccc13)CN(c1ccc(CS(=O)(=O)NC(=O)Cc3ccccc3OC)cc1C)C2=O"
8

Look up Population Mitotic Cells (%) of CN1CCN2c3ncccc3Cc3ccccc3C2C1 (stereo not given) and report it.
5

Quickly give me recorded Population Mitotic Cells (%) for "Cc1nc2ccc(Oc3ccc(F)cc3)cc2c(=O)n1C[C@H]1CCCN(C(C)C)C1.Cl"
22

Continuing:
Annotate the compound "Cc1ccc(F)cc1C(=O)Nc1ccc(C(=O)N2Cc3cccn3Cc3ccccc32)c(Cl)c1" with its measured Population Mitotic Cells (%).
25

Kindly indicate its recorded Population Mitotic Cells (%). Item: "CCCn1c(=O)c2[nH]c(C3CCCC3)nc2n(CCC)c1=O"
22

Report measured Population Mitotic Cells (%); entry is "CSCC[C@H](NC=O)C(=O)N[C@@H](CC(C)C)C(=O)N[C@@H](Cc1ccccc1)C(=O)O"
9

* * *

Parameter Population Tubulin-Different-Phenotype (%): see the listing below.
System: HEK-293T
measurement_protocol: Multiplex assay against HEK293T
Type: toxicity, cell-based
condition_details: human, 24 h, 1 µM, compound concentration 1 uM, replicate 1
Answer shape: numeric part, then the unit.

Illustrative cases are given below, each with its answer.
Query Population Tubulin-Different-Phenotype (%) for "COc1cc(C(=O)N(CCCc2ccccc2)Cc2ccc(CC(=O)O)cc2)cc(OC)c1C"
15%

Please report Population Tubulin-Different-Phenotype (%) for the following compound: "COc1ccccc1N1CCN(CCCCNC(=O)c2ccc3ccccc3c2)CC1.Cl"
32%

Next:
Could you please provide reported Population Tubulin-Different-Phenotype (%) for Cc1ccccc1C(=O)Nc1ccc(C(=O)N2CCCC(N(C)C)c3ccccc32)cc1.Cl (stereo not given) ? Thanks!
17%

Give a short answer stating reported Population Tubulin-Different-Phenotype (%) for "CCCn1c(=O)c2[nH]c(C3CCCC3)nc2n(CCC)c1=O" .
20%

Hello, please tell me recorded Population Tubulin-Different-Phenotype (%) for this one: "CSCC[C@H](NC=O)C(=O)N[C@@H](CC(C)C)C(=O)N[C@@H](Cc1ccccc1)C(=O)O"
14%

* * *

Test system: Fibroblast
measurement_protocol: Multiplex assay against human fibroblast
Assay type: toxicity, cell-based
condition_details: 48 h, 10 µM, compound concentration 10 uM, replicate 1
Flag rule - Population Hoechst High Intensity Objects (%) less than 4% flags TRUE; the remaining entries get FALSE.

These recorded examples may help you get a feel for the data.
# strict comparison: is reported Population Hoechst High Intensity Objects (%) < 4%? input = "O=C(O)c1cc2ccccc2c(Cc2c(O)c(C(=O)O)cc3ccccc23)c1O"
FALSE

Just wondering, is Population Hoechst High Intensity Objects (%) of "O=C(O)Cc1ccccc1Nc1c(Cl)cccc1Cl" below 4%?
TRUE

Here's an entry: "CN(C)CCCc1cc(C(=O)Nc2ccc(-c3ccncc3)cc2)ccc1O.Cl.Cl" . Is its Population Hoechst High Intensity Objects (%) below 4%?
FALSE

Is it true that Population Hoechst High Intensity Objects (%) reported for "CCCC(CCC)C(=O)O" is less than 4%?
TRUE

Does the reported Population Hoechst High Intensity Objects (%) of the following molecule sit strictly below 4%? Cc1ccc(C(C)(O)c2nc3ccccc3s2)c(C)c1 (stereo not given)
FALSE

Further cases:
Strictly below 4%: is that where Population Hoechst High Intensity Objects (%) of CNC[C@H](O)c1ccc(O)c(O)c1 [EPINEPHRINE] sits?
TRUE

Population Hoechst High Intensity Objects (%) strictly < 4% for this molecule? "COc1cc(C(=O)N(CCCc2ccccc2)Cc2ccc(CC(=O)O)cc2)cc(OC)c1C"
TRUE

I wonder whether Cl.Clc1ccc2nsnc2c1NC1=NCCN1 [TIZANIDINE HYDROCHLORIDE] has Population Hoechst High Intensity Objects (%) below 4%. Can you tell?
TRUE

Hello, I'm reviewing records and need to know if Population Hoechst High Intensity Objects (%) of "CCCn1c(=O)c2[nH]c(C3CCCC3)nc2n(CCC)c1=O" is below 4%. Could you check?
TRUE

Given "Cc1ccc(F)cc1C(=O)Nc1ccc(C(=O)N2Cc3cccn3Cc3ccccc32)c(Cl)c1" , is recorded Population Hoechst High Intensity Objects (%) strictly lower than 4%?
TRUE

Criterion: Population Hoechst High Intensity Objects (%) strictly below 4%. Is it met by CSc1ccccc1N1CCN(CCCCCC(=O)NC2CCCc3ccccc32)CC1.Cl (stereo not given) ?
FALSE

Consider the molecule "CC(=O)NCCc1c(Cc2ccccc2)[nH]c2ccccc12" . Is its Population Hoechst High Intensity Objects (%) strictly less than 4%?
TRUE

Lab log: compare recorded Population Hoechst High Intensity Objects (%) with 4%; is it strictly lower for CN1CCN2c3ncccc3Cc3ccccc3C2C1 (stereo not given) ?
FALSE

* * *

System: U2OS
measurement_protocol: Multiplex assay against U2OS
Type: toxicity, cell-based
condition_details: human, 48 h, 1 µM, compound concentration 1 uM, replicate 1
Flag rule - Population Tubulin-Different-Phenotype (%) less than 3% flags met; the remaining entries get not met.

Given "CCOc1c2c(c(OCC)c3ncccc13)CN(c1ccc(CS(=O)(=O)NC(=O)Cc3ccccc3OC)cc1C)C2=O" , is recorded Population Tubulin-Different-Phenotype (%) strictly lower than 3%?
met

Continuing:
Decide: Population Tubulin-Different-Phenotype (%) of "CCCn1c(=O)c2[nH]c(C3CCCC3)nc2n(CCC)c1=O" strictly below 3%?
met

In plain terms, does "CN1CCN(c2nc3cc(C(F)(F)F)ccc3n3cccc23)CC1.O=C(O)/C=C\C(=O)O.O=C(O)/C=C\C(=O)O" come in under 3% for Population Tubulin-Different-Phenotype (%)?
met

Is Population Tubulin-Different-Phenotype (%) of "COc1cc(C(=O)N(CCCc2ccccc2)Cc2ccc(CC(=O)O)cc2)cc(OC)c1C" strictly below 3%?
not met

Please let me know if "CC[C@H]1OC(=O)[C@H](C)[C@@H](O[C@H]2C[C@@](C)(OC)[C@@H](O)[C@H](C)O2)[C@H](C)[C@@H](O[C@@H]2O[C@H](C)C[C@H](N(C)C)[C@H]2O)[C@@]2(C)CC(C)=C(O2)[C@H](C)[C@@H](O)[C@]1(C)O" shows Population Tubulin-Different-Phenotype (%) below 3%.
not met

Quick check: does "Cc1nc2ccc(Oc3ccc(F)cc3)cc2c(=O)n1C[C@H]1CCCN(C(C)C)C1.Cl" have Population Tubulin-Different-Phenotype (%) under 3%?
not met

# TODO verify Population Tubulin-Different-Phenotype (%) < 3% strictly for this compound: CSc1ccccc1N1CCN(CCCCCC(=O)NC2CCCc3ccccc32)CC1.Cl (stereo unspecified)
not met

Please check: Population Tubulin-Different-Phenotype (%) for "COc1c(C)cc(NC(=O)c2nn(Cc3ccc(F)cc3)c3c2CN(C(=O)c2ccc[nH]2)C[C@]3(C)C(N)=O)cc1C" , strictly under 3% or not?
met

For CCCN1CCC[C@@H]2Cc3n[nH]cc3C[C@H]21.Cl [QUINPIROLE HYDROCHLORIDE] , is the recorded Population Tubulin-Different-Phenotype (%) below the cut-off of 3%?
met

In plain terms, does O=S(=O)(c1ccccc1)c1cnc2c(N3CCNCC3)cccc2c1 [INTEPIRDINE] come in under 3% for Population Tubulin-Different-Phenotype (%)?
not met
